The reported numbers originate from paper PMC7818638.

Reported IC50 by item:
System: HepG2
METHOD SUMMARY: Antiproliferative
Assay type: cell-based
CONDITION SUMMARY: Homo sapiens, HepG2, read-out: HepG2 IC50 ± SD

MOLECULE	IC50, µg/mL
CCOC(=O)c1c(-c2ccc(O)c(OC)c2)cc(-c2nnn(-c3ccc(Br)cc3)c2C)nc1N [Compound 15]	11.3
CCOC(=O)c1c(-c2ccccc2)cc(-c2nnn(-c3ccc(Br)cc3)c2C)nc1N [Compound 10]	23.2
COc1cc(-c2cc(-c3nnn(-c4ccc(Br)cc4)c3C)nc(N)c2C#N)ccc1O [Compound 8]	9.65
CCOC(=O)c1c(-c2ccco2)cc(-c2nnn(-c3ccc(Br)cc3)c2C)nc1N [Compound 16]	13.2
CCOC(=O)c1c(-c2cn(-c3ccccc3)nc2-c2nnn(-c3ccc(Br)cc3)c2C)cc(-c2nnn(-c3ccc(Br)cc3)c2C)nc1N [Compound 13]	6.24

====

Reported IC50 by item:
System: HepG2
METHOD SUMMARY: Antiproliferative
Type: cell-based
CONDITION SUMMARY: Homo sapiens, HepG2, read-out: HepG2 IC50 ± SD

COMPOUND	IC50 [µg/mL]
Cc1c(-c2cc(-c3cn(-c4ccccc4)nc3-c3nnn(-c4ccc(Br)cc4)c3C)c(C#N)c(N)n2)nnn1-c1ccc(Br)cc1 [Compound 6]	0.64
CCOC(=O)c1c(-c2ccc(OC)cc2)cc(-c2nnn(-c3ccc(Br)cc3)c2C)nc1N [Compound 11]	16.7
CCOC(=O)c1c(-c2cn(-c3ccccc3)nc2-c2nnn(-c3cccc([N+](=O)[O-])c3)c2C)cc(-c2nnn(-c3ccc(Br)cc3)c2C)nc1N [Compound 14]	9.54
Cc1c(-c2cc(-c3ccco3)c(C#N)c(N)n2)nnn1-c1ccc(Br)cc1 [Compound 9]	11.2

====

System: HepG2
METHOD SUMMARY: Antiproliferative
Assay type: cell-based
CONDITION SUMMARY: Homo sapiens, HepG2, read-out: HepG2 IC50 ± SD
Reported IC50 by item:

COMPOUND	OUTPUT UNIT	IC50
Cc1c(-c2cc(-c3cn(-c4ccccc4)nc3-c3nnn(-c4cccc([N+](=O)[O-])c4)c3C)c(C#N)c(N)n2)nnn1-c1ccc(Br)cc1	µg/mL	1.08
COc1cccc2c1C(=O)c1c(O)c3c(c(O)c1C2=O)C[C@@](O)(C(=O)CO)C[C@@H]3O[C@H]1C[C@H](N)[C@H](O)[C@H](C)O1 [doxorubicin, reference compound]	µg/mL	3.56
Cc1c(-c2cc(-c3ccccc3)c(C#N)c(N)n2)nnn1-c1ccc(Br)cc1	µg/mL	17.2
